These entries and their values trace back to ChEMBL document CHEMBL1139875.

Species on record: Rattus norvegicus
Experiment: Anti-dynamic allodynic effect in Sprague-Dawley rat CCI model assessed as latency to paw withdrawal after 0.5 hr
Assay type: functional
Listed compounds paired with reported Activity

compound: C/C(=N\NC(=O)NCCCC(=O)O)c1ccccc1
result: 14.8 s

compound: O=C(O)CCCNC(=O)N/N=C(\c1ccccc1)c1ccc(Br)cc1
result: 11.4 s

compound: NC(=O)N1c2ccccc2C=Cc2ccccc21 [CARBAMAZEPINE]
result: 2.7 s

compound: NCC1(CC(=O)O)CCCCC1
result: 1.6 s

compound: O=C(O)CCCNC(=O)N/N=C/c1ccccc1O
result: 13.6 s

response.value for Nc1nnc(-c2cccc(Cl)c2Cl)c(N)n1 (field: Activity) = 5.7 s

* * *

Species on record: Rattus norvegicus
Assay: Anti-dynamic allodynic effect in Sprague-Dawley rat CCI model assessed as latency to paw withdrawal after 2.5 hr
Type: functional
Listed compounds paired with reported Activity
// units = s; emit number, no label

Known results for compounds:
compound: O=C(O)CCCNC(=O)N/N=C(\c1ccccc1)c1ccc(Br)cc1
unit.name: s
result: 11.3

compound: C/C(=N\NC(=O)NCCCC(=O)O)c1ccccc1
unit.name: s
result: 14.5

compound: NC(=O)N1c2ccccc2C=Cc2ccccc21 [CARBAMAZEPINE]
unit.name: s
result: 3.8

compound: NCC1(CC(=O)O)CCCCC1
unit.name: s
result: 6.6

response.value for O=C(O)CCCNC(=O)N/N=C/c1ccccc1O (field: Activity) = 13.1

response.value for Nc1nnc(-c2cccc(Cl)c2Cl)c(N)n1 (field: Activity) = 1

response.value for O=C(O)CCCNC(=O)N/N=C/c1ccc(Cl)cc1 (field: Activity) = 13

response.value for O=C(O)CCCNC(=O)N/N=C1\C(=O)Nc2ccccc21 (field: Activity) = 0.8

response.value for CN(C)c1ccc(/C=N/NC(=O)NCCCC(=O)O)cc1 (field: Activity) = 8.4

response.value for O=C(O)CCCNC(=O)NN=C(Cc1ccccc1)Cc1ccccc1 (field: Activity) = 10.3

* * *

System: Rattus norvegicus
Assay: Antihyperalgesic effects in Sprague-Dawley rat CCI model assessed as duration of paw withdrawal at 100 mg/kg, ip after 2 hrs
Assay type: functional
Details: route intraperitoneal
// assign YES if Activity falls strictly below 7 s, else NO (ties count as NO)

Field: example entries. Status: answers known.
compound: CN(C)c1ccc(/C=N/NC(=O)NCCCC(=O)O)cc1
class.name: YES

compound: NC(=O)N1c2ccccc2C=Cc2ccccc21 [CARBAMAZEPINE]
class.name: NO

Hello, is Activity of the following compound strictly smaller than 7 s? O=C(O)CCCNC(=O)N/N=C(\c1ccccc1)c1ccc(Br)cc1
NO

Hello, is Activity of the following compound strictly smaller than 7 s? O=C(O)CCCNC(=O)NN=C1CCCCC1
YES

Hello, is Activity of the following compound strictly smaller than 7 s? C/C(=N\NC(=O)NCCCC(=O)O)c1cccc(N)c1
YES

* * *

Tested on: Rattus norvegicus
Assay: Antihyperalgesic effects in Sprague-Dawley rat SNL model assessed as duration of paw withdrawal at 100 mg/kg, ip after 1.5 hrs, ip
Type: functional
Conditions: route intraperitoneal
value.type: Activity (s)
// units = s; emit number, no label

Known results for compounds:
compound: O=C(O)CCCNC(=O)NN=C1CCCCC1
value.type: Activity
result: 15.6

compound: NCC1(CC(=O)O)CCCCC1 [GABAPENTIN]
value.type: Activity
result: 10

compound: C/C(=N\NC(=O)NCCCC(=O)O)c1ccccc1
value.type: Activity
result: 18.7

response.value for Nc1nnc(-c2cccc(Cl)c2Cl)c(N)n1 [LAMOTRIGINE] (field: Activity) = 10.1

response.value for O=C(O)CCCNC(=O)NN=C(c1ccccc1)c1ccccc1 (field: Activity) = 18.5

response.value for CN(C)c1ccc(/C=N/NC(=O)NCCCC(=O)O)cc1 (field: Activity) = 5.5

* * *

Species: Rattus norvegicus
Experiment: Anti-dynamic allodynic effect in Sprague-Dawley rat CCI model assessed as latency to paw withdrawal after 0.5 hr
Format: functional
Listed compounds paired with reported Activity
// units = s; emit number, no label

Known results for compounds:
smiles.data: O=C(O)CCCNC(=O)N/N=C1\C(=O)Nc2ccccc21
result: 14.5
--
smiles.data: CN(C)c1ccc(/C=N/NC(=O)NCCCC(=O)O)cc1
result: 10.9
--
smiles.data: O=C(O)CCCNC(=O)NN=C(Cc1ccccc1)Cc1ccccc1
result: 12

# input for lookup
response.value for O=C(O)CCCNC(=O)N/N=C/c1ccc(Cl)cc1 (field: Activity) = 14.9

* * *

Tested on: Rattus norvegicus
Assay: Antihyperalgesic effects in Sprague-Dawley rat CCI model assessed as duration of paw withdrawal at 100 mg/kg, ip after 1.5 hrs
Type: functional
Conditions: route intraperitoneal
// assign satisfied if Activity falls strictly below 10 s, else not satisfied (ties count as not satisfied)

compound: O=C(O)CCCNC(=O)N/N=C/c1ccccc1O
study.target: Rattus norvegicus
class.name: satisfied
//
compound: NC(=O)N1c2ccccc2C=Cc2ccccc21 [CARBAMAZEPINE]
study.target: Rattus norvegicus
class.name: not satisfied
//
compound: O=C(O)CCCNC(=O)NN=C1CCCCC1
study.target: Rattus norvegicus
class.name: satisfied
//
compound: O=C(O)CCCNC(=O)N/N=C(\c1ccccc1)c1ccc(Br)cc1
study.target: Rattus norvegicus
class.name: satisfied
//
compound: CN(C)c1ccc(/C=N/NC(=O)NCCCC(=O)O)cc1
study.target: Rattus norvegicus
class.name: satisfied
//
compound: NCC1(CC(=O)O)CCCCC1
study.target: Rattus norvegicus
class.name: not satisfied

Hello, is Activity of the following compound strictly smaller than 10 s? O=C(O)CCCNC(=O)N/N=C/c1ccc(Cl)cc1
satisfied

Hello, is Activity of the following compound strictly smaller than 10 s? C/C(=N\NC(=O)NCCCC(=O)O)c1ccc(C)cc1
satisfied

Hello, is Activity of the following compound strictly smaller than 10 s? O=C(O)CCCNC(=O)N/N=C1\C(=O)Nc2ccccc21
satisfied

Hello, is Activity of the following compound strictly smaller than 10 s? O=C(O)CCCNC(=O)NN=C1CCCC1
not satisfied

Hello, is Activity of the following compound strictly smaller than 10 s? Nc1nnc(-c2cccc(Cl)c2Cl)c(N)n1
not satisfied

* * *

System: Mus musculus
Assay: Anticonvulsant activity in Swiss Albino mouse at 300 mg/kg, ip after 0.5 hr by scPIC test
Type: functional, organism-based
Parameters: dose 300 mg/kg
Active and inactive are the calls of the source. The calls are words filed in the database; no cut-off is given here.
Write down one outcome, taken from Y = active, N = inactive

molecule: CC(=O)Oc1ccccc1C(=O)O [ASPIRIN]
class.name: N

In this assay, the call recorded for O=C(O)CCCNC(=O)N/N=C/c1cccc([N+](=O)[O-])c1 was what?
Y

In this assay, the call recorded for CCC1(C)CC(=O)NC1=O (stereo not drawn) was what?
N

In this assay, the call recorded for C/C(=N\NC(=O)NCCCC(=O)O)c1ccc(C)cc1 was what?
Y

In this assay, the call recorded for C/C(=N\NC(=O)NCCCC(=O)O)c1cccc(N)c1 was what?
N

In this assay, the call recorded for O=C(O)CCCNC(=O)NN=C(c1ccccc1)c1ccccc1 was what?
Y

In this assay, the call recorded for O=C(O)CCCNC(=O)N/N=C1\C(=O)Nc2ccccc21 was what?
Y

In this assay, the call recorded for O=C(O)CCCNC(=O)NN=C1CCCCC1 was what?
Y

* * *

Test system: Rattus norvegicus
Assay: Effect on spontaneous pain in Sprague-Dawley rat CCI model assessed as duration of paw withdrawal at 100 mg/kg, ip after 1.5 hrs
Assay type: functional
Details: route intraperitoneal
value.type: Activity (s)
// units = s; emit number, no label

Known results for compounds:
compound: O=C(O)CCCNC(=O)N/N=C/c1ccc([N+](=O)[O-])cc1
Activity / s: 13.6
--
compound: Nc1nnc(-c2cccc(Cl)c2Cl)c(N)n1 [LAMOTRIGINE]
Activity / s: 76.9
--
compound: O=C(O)CCCNC(=O)NN=C(Cc1ccccc1)Cc1ccccc1
Activity / s: 1.3

# input for lookup
response.value for CN(C)c1ccc(/C=N/NC(=O)NCCCC(=O)O)cc1 (field: Activity) = 38.2

* * *

Tested on: Rattus norvegicus
Test: Antihyperalgesic effects in Sprague-Dawley rat SNL model assessed as duration of paw withdrawal at 100 mg/kg, ip after 1.5 hrs, ip
Assay type: functional
Details: route intraperitoneal
value.type: Activity (s)
// units = s; emit number, no label

Known results for molecules:
molecule: O=C(O)CCCNC(=O)N/N=C/c1ccc(Cl)cc1
unit.name: s
Activity: 12.3
--
molecule: C/C(=N\NC(=O)NCCCC(=O)O)c1cccc(N)c1
unit.name: s
Activity: 7.3
--
molecule: O=C(O)CCCNC(=O)N/N=C/c1ccccc1O
unit.name: s
Activity: 10.6
--
molecule: O=C(O)CCCNC(=O)NN=C1CCCC1
unit.name: s
Activity: 5.1
--
molecule: NC(=O)N1c2ccccc2C=Cc2ccccc21 [CARBAMAZEPINE]
unit.name: s
Activity: 6.6

# input for lookup
response.value for O=C(O)CCCNC(=O)N/N=C1\C(=O)Nc2ccccc21 (field: Activity) = 45.7
